# EXPERIMENTAL_DETAILS: Stability test: storage at 50° C. in tightly sealed glass vial, HPLC purity
# Assay type: physicochemical
# EXPERIMENTAL_SETUP: after 2 days at 50° C., sealed glass vial
READOUT_LABEL: HPLC purity (%)
Just the number please, in %, no unit attached.

# COMPOUND, UNIT_ABBREV, HPLC purity
records = [
    ("COc1ccc(C(OCC23COC(C(n4cc(C)c(NC(=O)c5ccccc5)nc4=O)O2)C3OP(OCCC#N)N(C(C)C)C(C)C)(c2ccccc2)c2ccc(OC)cc2)cc1 (stereo not shown) [Control, reference compound]", "%", 97.9),
    ("COc1ccc(C(OCC23COC(C(n4cc(C)c(NC(=O)c5ccccc5)nc4=O)O2)C3OP(OCCC#N)N(C(C)C)C(C)C)(c2ccccc2)c2ccc(OC)cc2)cc1 (stereo not shown) [Example 3]", "%", 98.6),
    ("COc1ccc(C(OCC23COC(C(n4cc(C)c(NC(=O)c5ccccc5)nc4=O)O2)C3OP(OCCC#N)N(C(C)C)C(C)C)(c2ccccc2)c2ccc(OC)cc2)cc1 (stereo not shown) [Example 1]", "%", 98.1),
]

Then this compound:
// query HPLC purity value for entry COc1ccc(C(OCC23COC(C(n4cc(C)c(NC(=O)c5ccccc5)nc4=O)O2)C3OP(OCCC#N)N(C(C)C)C(C)C)(c2ccccc2)c2ccc(OC)cc2)cc1 (stereo not shown) [Example 2]
98.6

====

Listing of entries alongside the reported HPLC purity.
# EXPERIMENTAL_DETAILS: Stability test: storage at 50° C. in tightly sealed glass vial, HPLC purity
# Type: physicochemical
# EXPERIMENTAL_SETUP: after 1 day at 50° C., sealed glass vial
// return the numeric value with its unit appended

Consider the following illustrative entries.
# COMPOUND, EXPERIMENTAL_VALUE
measured = [
    ("COc1ccc(C(OCC23COC(C(n4cc(C)c(NC(=O)c5ccccc5)nc4=O)O2)C3OP(OCCC#N)N(C(C)C)C(C)C)(c2ccccc2)c2ccc(OC)cc2)cc1 (stereo not shown) [Example 1]", "98.4%"),
    ("COc1ccc(C(OCC23COC(C(n4cc(C)c(NC(=O)c5ccccc5)nc4=O)O2)C3OP(OCCC#N)N(C(C)C)C(C)C)(c2ccccc2)c2ccc(OC)cc2)cc1 (stereo not shown) [Control, reference compound]", "98.2%"),
    ("COc1ccc(C(OCC23COC(C(n4cc(C)c(NC(=O)c5ccccc5)nc4=O)O2)C3OP(OCCC#N)N(C(C)C)C(C)C)(c2ccccc2)c2ccc(OC)cc2)cc1 (stereo not shown) [Example 3]", "98.7%"),
]

Then this compound:
// query HPLC purity value for entry COc1ccc(C(OCC23COC(C(n4cc(C)c(NC(=O)c5ccccc5)nc4=O)O2)C3OP(OCCC#N)N(C(C)C)C(C)C)(c2ccccc2)c2ccc(OC)cc2)cc1 (stereo not shown) [Example 2]
98.7%

====

# EXPERIMENTAL_DETAILS: Stability test: storage at 50° C. in tightly sealed glass vial, HPLC purity
# Format: physicochemical
# EXPERIMENTAL_SETUP: after 6 days at 50° C., sealed glass vial
Listing of entries alongside the reported HPLC purity.

# COMPOUND, READOUT_LABEL, EXPERIMENTAL_VALUE
rows = [
    ("COc1ccc(C(OCC23COC(C(n4cc(C)c(NC(=O)c5ccccc5)nc4=O)O2)C3OP(OCCC#N)N(C(C)C)C(C)C)(c2ccccc2)c2ccc(OC)cc2)cc1 (stereo not shown) [Example 1]", "HPLC purity", "98.1%"),
]

// query HPLC purity value for entry COc1ccc(C(OCC23COC(C(n4cc(C)c(NC(=O)c5ccccc5)nc4=O)O2)C3OP(OCCC#N)N(C(C)C)C(C)C)(c2ccccc2)c2ccc(OC)cc2)cc1 (stereo not shown) [Control, reference compound]
96.9%

// query HPLC purity value for entry COc1ccc(C(OCC23COC(C(n4cc(C)c(NC(=O)c5ccccc5)nc4=O)O2)C3OP(OCCC#N)N(C(C)C)C(C)C)(c2ccccc2)c2ccc(OC)cc2)cc1 (stereo not shown) [Example 3]
98.5%

// query HPLC purity value for entry COc1ccc(C(OCC23COC(C(n4cc(C)c(NC(=O)c5ccccc5)nc4=O)O2)C3OP(OCCC#N)N(C(C)C)C(C)C)(c2ccccc2)c2ccc(OC)cc2)cc1 (stereo not shown) [Example 2]
98.5%

====

Listing of entries alongside the reported Decomposition Degree.
# EXPERIMENTAL_DETAILS: Stability test: storage at 50° C. in tightly sealed glass vial, HPLC purity
# Format: physicochemical
# EXPERIMENTAL_SETUP: HPLC purity on day 0 minus HPLC purity after 20 days at 50° C.

# MOLECULE, Decomposition Degree
rows = [
    ("COc1ccc(C(OCC23COC(C(n4cc(C)c(NC(=O)c5ccccc5)nc4=O)O2)C3OP(OCCC#N)N(C(C)C)C(C)C)(c2ccccc2)c2ccc(OC)cc2)cc1 (stereo not shown) [Example 3]", "0.5 Δ %"),
    ("COc1ccc(C(OCC23COC(C(n4cc(C)c(NC(=O)c5ccccc5)nc4=O)O2)C3OP(OCCC#N)N(C(C)C)C(C)C)(c2ccccc2)c2ccc(OC)cc2)cc1 (stereo not shown) [Example 2]", "0.4 Δ %"),
    ("COc1ccc(C(OCC23COC(C(n4cc(C)c(NC(=O)c5ccccc5)nc4=O)O2)C3OP(OCCC#N)N(C(C)C)C(C)C)(c2ccccc2)c2ccc(OC)cc2)cc1 (stereo not shown) [Control, reference compound]", "6.6 Δ %"),
]

Then this molecule:
// query Decomposition Degree value for entry COc1ccc(C(OCC23COC(C(n4cc(C)c(NC(=O)c5ccccc5)nc4=O)O2)C3OP(OCCC#N)N(C(C)C)C(C)C)(c2ccccc2)c2ccc(OC)cc2)cc1 (stereo not shown) [Example 1]
0.7 Δ %

====

# EXPERIMENTAL_DETAILS: Stability test: storage at 50° C. in tightly sealed glass vial, HPLC purity
# Assay type: physicochemical
# EXPERIMENTAL_SETUP: day 0 (start of stability test at 50° C.)
# Description: As used herein, the term “decomposition degree” is defined as a value obtained by subtracting a […] when the stability test is performed for a certain period of time under the following conditions. The purity can be determined by HPLC. A higher decomposition degree means that the decomposition progressed and the purity decreased. […]
Listing of entries alongside the reported HPLC purity.
// return the numeric value with its unit appended

# MOLECULE, EXPERIMENTAL_VALUE
data = [
    ("COc1ccc(C(OCC23COC(C(n4cc(C)c(NC(=O)c5ccccc5)nc4=O)O2)C3OP(OCCC#N)N(C(C)C)C(C)C)(c2ccccc2)c2ccc(OC)cc2)cc1 (stereo not shown) [Example 1]", "98.8%"),
    ("COc1ccc(C(OCC23COC(C(n4cc(C)c(NC(=O)c5ccccc5)nc4=O)O2)C3OP(OCCC#N)N(C(C)C)C(C)C)(c2ccccc2)c2ccc(OC)cc2)cc1 (stereo not shown) [Example 2]", "98.7%"),
    ("COc1ccc(C(OCC23COC(C(n4cc(C)c(NC(=O)c5ccccc5)nc4=O)O2)C3OP(OCCC#N)N(C(C)C)C(C)C)(c2ccccc2)c2ccc(OC)cc2)cc1 (stereo not shown) [Control, reference compound]", "98.7%"),
]

Then this molecule:
// query HPLC purity value for entry COc1ccc(C(OCC23COC(C(n4cc(C)c(NC(=O)c5ccccc5)nc4=O)O2)C3OP(OCCC#N)N(C(C)C)C(C)C)(c2ccccc2)c2ccc(OC)cc2)cc1 (stereo not shown) [Example 3]
98.6%
